Assay: AUC (0 to t) in ICR mouse at 10 mg/kg, po measured up to 24 hrs by LC-MS/MS analysis
Assay type: ADME, organism-based
Conditions: in vivo
Recorded Endpoint: AUC(0-t) at 24 h (ng·h/mL)
Give the value, in units of ng·h/mL, as a plain number.

**Query** Please report the recorded AUC(0-t) at 24 h for N#Cc1ncc(Nc2ncc3c(ccc(=O)n3CC(F)F)n2)cc1N[C@@H]1CCNC1 .
**Result** 40.7

---

Assay: Cmax in ICR mouse at 2 mg/kg, iv measured up to 24 hrs by LC-MS/MS analysis
Type: ADME, organism-based
Conditions: in vivo
Recorded Endpoint: Cmax (ng/mL)
Give the value, in units of ng/mL, as a plain number.

**Query** Please report the recorded Cmax for N#Cc1ncc(Nc2ncc3c(ccc(=O)n3CC(F)F)n2)cc1N[C@@H]1CCNC1 .
**Result** 526

---

Assay: Metabolic stability in human liver microsome assessed as half life preincubated with compound for 10 mins followed by NADPH addition and measured up to 60 min by LC-MS/MS analysis
Assay type: ADME
Settings: liver microsomes, time < 70 min
Recorded Endpoint: half-life (min)
Give the value, in units of min, as a plain number.

O=C(O)Cc1ccccc1Nc1c(Cl)cccc1Cl	5.14

Kindly consider the entry below.
**Query** Please report the recorded half-life for N#Cc1ncc(Nc2ncc3c(ccc(=O)n3CC(F)F)n2)cc1N[C@@H]1CCNC1 .
**Result** 10.8

---

Assay: MRT (0 to t) in ICR mouse at 2 mg/kg, iv measured up to 24 hrs by LC-MS/MS analysis
Assay type: ADME, organism-based
Conditions: in vivo
Recorded Endpoint: MRT last at 24 h (h)
Give the value, in units of h, as a plain number.

**Query** Please report the recorded MRT last at 24 h for N#Cc1ncc(Nc2ncc3c(ccc(=O)n3CC(F)F)n2)cc1N[C@@H]1CCNC1 .
**Result** 2.67

---

Assay: Volume of distribution at steady state in ICR mouse at 2 mg/kg, iv measured up to 24 hrs by LC-MS/MS analysis
Type: ADME, organism-based
Conditions: in vivo, read-out: Vdss
Recorded Endpoint: Vd
Please give the number followed by its unit.

**Query** Please report the recorded Vd for N#Cc1ncc(Nc2ncc3c(ccc(=O)n3CC(F)F)n2)cc1N[C@@H]1CCNC1 .
**Result** 23.3 L/kg

---

Assay: Cmax in ICR mouse at 10 mg/kg, po measured up to 24 hrs by LC-MS/MS analysis
Format: ADME, organism-based
Details: in vivo
Recorded Endpoint: Cmax (ng/mL)
Give the value, in units of ng/mL, as a plain number.

**Query** Please report the recorded Cmax for N#Cc1ncc(Nc2ncc3c(ccc(=O)n3CC(F)F)n2)cc1N[C@@H]1CCNC1 .
**Result** 81.1

---

Assay: Clearance in ICR mouse at 2 mg/kg, iv measured up to 24 hrs by LC-MS/MS analysis
Assay type: ADME, organism-based
Conditions: in vivo
Recorded Endpoint: clearance (mL/min/kg)
Give the value, in units of mL/min/kg, as a plain number.

**Query** Please report the recorded clearance for N#Cc1ncc(Nc2ncc3c(ccc(=O)n3CC(F)F)n2)cc1N[C@@H]1CCNC1 .
**Result** 98.4

---

Tested on: HT-29
Test: Synergistic antiproliferative activity against human HT-29 cells assessed as inhibition of cell proliferation incubated for 72 hrs in presence of 50 nM 5-((4-((morpholin-2-ylmethyl)amino)-5-(trifluoromethyl)pyridin-2-yl)amino)pyrazine-2-carbonitrile by CCK-8 assay
Type: functional, cell-based
Conditions: HT-29, 72 h
Recorded Endpoint: pIC50
Bear in mind: pIC50 is minus log10 of a mol/L concentration; give just that figure.

**Query** Please report the recorded pIC50 for Nc1ccn([C@@H]2O[C@H](CO)[C@@H](O)C2(F)F)c(=O)n1 [GEMCITABINE] .
**Result** 6.75

Hey, just so you know, these numbers are from ChEMBL document CHEMBL5500341.
